Assay: small-molecule microarray binders of probe aNog, primary screen, biochemical, biotinylated probe, 635/667 nm fluorescence (AID 1115);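 note: probe is biotinylated aNog protein used at 0.15 µg/mL for 1 h at 4 C; z-score combines 667 nm fluorescence of each spot with its signal to noise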
Details: higher = more signal
recordedMetric: composite z-score

[
  {
    "compound": "CC(=O)OC[C@H]1OC(ON=CC[C@@H]2C=C[C@H](OC(C)=O)[C@@H](COC(C)=O)O2)[C@H](OC(C)=O)[C@@H](OC(C)=O)[C@@H]1OC(C)=O (some centres undefined)",
    "recordedResult": -0.144
  },
  {
    "compound": "C[C@H](ON=C1[C@H]2CCn3c(=O)n(-c4ccccc4)c(=O)n3[C@H]2[C@H](O)[C@@H]2O[C@H]12)c1cn([C@H](CO)Cc2ccccc2)nn1",
    "recordedResult": 0.0637
  },
  {
    "compound": "CO[C@H]1COC(=O)CC=C[C@H](C)[C@@H](OC)COC(=O)[C@@H](C)NC(=O)CC=C[C@@H]1C",
    "recordedResult": -0.274
  },
  {
    "compound": "CC(C)CON=C1[C@H]2CCn3c(=O)n(Cc4cc5c(cc4Cl)OCO5)c(=O)n3[C@H]2[C@H](O)[C@@H]2O[C@H]12",
    "recordedResult": -0.329
  },
  {
    "compound": "CC(C)=CCCC(C)=CCON=C1C[C@@H](O)[C@@H](O)[C@@H]2[C@@H]3C(=O)N(C(C)(C)C)C(=O)[C@@H]3CC[C@@H]12",
    "recordedResult": -0.116
  }
]

Please list composite z-score recorded for the compound O=c1n(Cc2cc3c(cc2Cl)OCO3)c(=O)n2n1CC[C@@H]1C(=NOCc3ccccc3)[C@H]3O[C@H]3[C@@H](O)[C@@H]12 -0.519

Give recorded composite z-score. CCOC(=O)[C@H](CC(C)C)NC(=O)CCC1CC(OC(=O)NCCc2ccc(F)cc2)CC2(CCCC(COC(=O)NCCOc3ccccc3)O2)O1 (some centres undefined) -0.0965

Report composite z-score, nothing else, for this compound: CO[C@H]1COC(=O)[C@@H](C)COC(=O)[C@H](C)NC(=O)CC=C[C@H]1C -0.379

Let me know recorded composite z-score for COC(=O)[C@@H]1CC[C@H](C)[C@@H](c2ccc(C)cc2)N1C(=O)c1ccc(C=NO[C@H](C)c2cn([C@@H]3COC[C@H]3O)nn2)cc1 , thanks. -0.0065

State, in one line, measured composite z-score of CC(C)(C)N1C(=O)[C@H]2[C@H]3[C@H](O)[C@H](O)CC(=O)[C@@H]3CC[C@H]2C1=O -0.108

---

Assay: binders of probe aFST on microarray, primary screen, stem cell growth factor project, biochemical, small-molecule microarray, fluorescence 635/667 (AID 1086);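 note: score merges 667 nm fluorescence with signal-to-noise of each printed compound spot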
Details: higher = more signal
recordedMetric: composite z-score

Solved entries:
[
  {
    "smilesNotation": "CC(=O)OC[C@H]1O[C@H](C#Cc2ccccc2)C=C[C@@H]1OC(C)=O",
    "composite z-score": 0.0157
  },
  {
    "smilesNotation": "CO[C@@H]1COC(=O)[C@H](CCSC)NC(=O)CC=C[C@@H](C)COC(=O)[C@H](C)NC(=O)CC=C[C@H]1C",
    "composite z-score": 0.457
  }
]

Read the next record carefully.
Please supply the value of reported composite z-score for the item COC(=O)[C@@H]1CC[C@H](C)[C@@H](c2ccc(C)cc2)N1C(=O)c1ccc(C=NO[C@@H]2O[C@H](COC(C)=O)[C@@H](OC(C)=O)[C@H](OC(C)=O)[C@H]2OC(C)=O)cc1 0.337

---

Test: E. coli DRC41 culture turbidity changes, primary screen, E. coli filamentation inducer project, strain DRC41, OD650, 48 h (AID 1152);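 note: E. coli MC1000 strain DRC41 lacking acrAB efflux pump and sulA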
Settings: E. coli DRC41 (acrAB sulA), higher = more signal, called active from +8 up or from −8 down
recordedMetric: z-score
I'd appreciate a reply containing only the number, no unit.

The cases that follow already have their z-score on record.
[
  {
    "compound": "O=C(C=Cc1ccc2c(c1)OCO2)c1ccc(F)cc1",
    "z-score": -0.394
  },
  {
    "compound": "CON=C1[C@H]2CCn3c(=O)n(-c4ccccc4)c(=O)n3[C@H]2[C@H](O)[C@@H]2O[C@H]12",
    "z-score": -1.04
  },
  {
    "compound": "O=C1OCCC=C1C(O)CCc1ccccc1 (centres undefined)",
    "z-score": -0.27
  },
  {
    "compound": "C[C@H]1CC[C@H]2C(=O)O[C@H](COc3ccc(C(C)(C)C)cc3)CN2[C@@H]1c1ccc(Br)cc1",
    "z-score": -0.421
  },
  {
    "compound": "COC(=O)[C@@H]1CC[C@H](C)[C@@H](c2ccc(C)cc2)N1C(=O)c1ccc(C=NO[C@@H](C)c2cn([C@H](CO)Cc3ccccc3)nn2)cc1",
    "z-score": 0.442
  },
  {
    "compound": "C#CCCCON=C1C[C@@H](O)[C@@H](O)[C@@H]2[C@@H]3C(=O)N(c4cccc(Oc5ccccc5)c4)C(=O)[C@@H]3CC[C@H]12",
    "z-score": 0.496
  }
]

// Input: COc1ccc(C#C[C@@H]2C=C[C@H](OC(C)=O)[C@@H](COC(C)=O)O2)cc1 . Output its z-score only. 0.381

Identify measured z-score corresponding to COc1ccc(COC(=O)NN=C2C[C@@H](O)[C@@H](O)[C@@H]3[C@@H]4C(=O)N(Cc5ccccc5)C(=O)[C@@H]4CC[C@H]23)cc1 -0.0671

---

Test: small-molecule microarray binders of probe aLefty2, primary screen, biochemical, biotinylated probe, 635/667 nm fluorescence (AID 1094);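 note: score merges spot fluorescence near 667 nm with spot signal-to-noise ratio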
Conditions: higher = more signal
recordedMetric: composite z-score
Hey, just send me the number, nothing else.

[
  {
    "compound": "CCOC(=O)[C@H](CC(C)C)NC(=O)CCC1CC(OC(=O)NCc2cccc3ccccc23)CC2(CCCC(COC(=O)NCCCN3CCCC3=O)O2)O1 (stereo partly drawn)",
    "recordedResult": -0.0998
  },
  {
    "compound": "O=C1[C@H]2[C@H]3[C@H](O)[C@H](O)CC(=NOC[C@@H](O)COCc4ccco4)[C@H]3CC[C@H]2C(=O)N1Cc1ccccc1",
    "recordedResult": -0.148
  }
]

Now take the following compound into account.
State, in one line, measured composite z-score of O=C(NN=C1C[C@@H](O)[C@@H](O)[C@@H]2[C@@H]3C(=O)N(Cc4ccccc4)C(=O)[C@@H]3CC[C@@H]12)OCc1ccccc1 -0.112

---

Molecular target: Neurogenic locus notch homolog protein 2 (Homo sapiens) (UniProt Q04721)
Sequence (Q04721 whole entry, looked up): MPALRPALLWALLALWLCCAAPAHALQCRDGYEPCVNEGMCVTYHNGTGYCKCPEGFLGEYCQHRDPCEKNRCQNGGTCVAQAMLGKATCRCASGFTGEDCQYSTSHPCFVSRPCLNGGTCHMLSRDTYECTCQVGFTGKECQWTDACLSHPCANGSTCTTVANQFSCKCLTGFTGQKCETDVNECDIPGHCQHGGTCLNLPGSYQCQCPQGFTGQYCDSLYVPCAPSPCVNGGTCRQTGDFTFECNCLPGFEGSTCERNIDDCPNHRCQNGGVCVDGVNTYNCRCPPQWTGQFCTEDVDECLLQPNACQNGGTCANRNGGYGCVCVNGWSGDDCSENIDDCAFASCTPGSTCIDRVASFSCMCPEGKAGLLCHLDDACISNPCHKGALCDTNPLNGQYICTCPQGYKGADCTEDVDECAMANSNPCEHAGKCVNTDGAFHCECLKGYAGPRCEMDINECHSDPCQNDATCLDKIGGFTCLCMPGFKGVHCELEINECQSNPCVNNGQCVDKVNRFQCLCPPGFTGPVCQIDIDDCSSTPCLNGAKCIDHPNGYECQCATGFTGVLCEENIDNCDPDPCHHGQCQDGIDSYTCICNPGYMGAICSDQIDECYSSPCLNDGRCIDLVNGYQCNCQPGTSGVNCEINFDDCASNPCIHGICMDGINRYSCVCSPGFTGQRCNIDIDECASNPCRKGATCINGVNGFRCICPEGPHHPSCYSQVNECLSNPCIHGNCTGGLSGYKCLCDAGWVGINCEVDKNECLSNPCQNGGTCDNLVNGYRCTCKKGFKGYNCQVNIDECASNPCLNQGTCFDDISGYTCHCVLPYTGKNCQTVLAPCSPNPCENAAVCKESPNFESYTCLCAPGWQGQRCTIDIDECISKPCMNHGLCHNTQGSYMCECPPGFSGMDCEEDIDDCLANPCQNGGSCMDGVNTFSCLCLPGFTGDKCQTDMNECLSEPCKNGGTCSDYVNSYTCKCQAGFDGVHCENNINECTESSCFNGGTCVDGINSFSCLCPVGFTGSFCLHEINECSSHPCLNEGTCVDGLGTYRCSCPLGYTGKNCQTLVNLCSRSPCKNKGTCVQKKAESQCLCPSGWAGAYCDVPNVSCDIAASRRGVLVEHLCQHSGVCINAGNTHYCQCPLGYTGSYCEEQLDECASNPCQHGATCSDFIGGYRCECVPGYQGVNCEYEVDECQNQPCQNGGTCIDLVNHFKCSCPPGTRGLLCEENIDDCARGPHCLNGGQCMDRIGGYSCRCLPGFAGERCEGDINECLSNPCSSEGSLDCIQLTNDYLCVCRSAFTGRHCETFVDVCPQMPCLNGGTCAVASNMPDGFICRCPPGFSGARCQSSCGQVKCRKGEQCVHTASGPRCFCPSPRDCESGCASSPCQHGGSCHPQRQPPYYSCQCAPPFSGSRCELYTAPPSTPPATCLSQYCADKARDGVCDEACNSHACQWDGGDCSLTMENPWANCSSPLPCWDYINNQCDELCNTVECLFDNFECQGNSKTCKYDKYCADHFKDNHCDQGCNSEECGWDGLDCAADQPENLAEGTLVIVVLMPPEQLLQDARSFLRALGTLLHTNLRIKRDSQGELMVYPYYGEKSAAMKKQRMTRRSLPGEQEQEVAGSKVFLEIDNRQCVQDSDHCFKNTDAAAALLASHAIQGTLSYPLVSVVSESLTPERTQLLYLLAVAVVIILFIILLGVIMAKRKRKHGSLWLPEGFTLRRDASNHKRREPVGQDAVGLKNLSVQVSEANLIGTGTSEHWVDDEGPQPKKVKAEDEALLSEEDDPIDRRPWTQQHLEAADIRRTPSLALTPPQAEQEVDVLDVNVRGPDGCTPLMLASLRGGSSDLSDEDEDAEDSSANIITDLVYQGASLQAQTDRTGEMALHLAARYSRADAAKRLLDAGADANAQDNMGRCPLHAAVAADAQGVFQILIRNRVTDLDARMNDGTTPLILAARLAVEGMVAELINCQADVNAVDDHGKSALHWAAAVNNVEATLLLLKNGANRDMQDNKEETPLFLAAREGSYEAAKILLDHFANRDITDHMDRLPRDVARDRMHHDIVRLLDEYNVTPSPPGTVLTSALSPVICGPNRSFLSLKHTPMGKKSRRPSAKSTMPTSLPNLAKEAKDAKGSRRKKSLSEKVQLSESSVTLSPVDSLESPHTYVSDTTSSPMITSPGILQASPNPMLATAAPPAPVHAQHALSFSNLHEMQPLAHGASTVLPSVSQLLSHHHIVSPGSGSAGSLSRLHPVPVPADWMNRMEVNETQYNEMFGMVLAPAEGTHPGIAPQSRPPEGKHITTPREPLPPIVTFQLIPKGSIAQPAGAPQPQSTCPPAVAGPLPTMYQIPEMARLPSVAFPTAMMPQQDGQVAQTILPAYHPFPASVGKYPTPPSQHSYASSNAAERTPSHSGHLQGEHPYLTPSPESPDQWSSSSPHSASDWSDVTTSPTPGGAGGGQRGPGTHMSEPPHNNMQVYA
Experiment: Notch2 binders on small-molecule microarrays, primary screen, biochemical, small-molecule microarray, 635 nm fluorescence, stem cell growth factors (AID 1073)
Settings: Notch2 binding, higher = more signal
Please note: Yes applies when composite z-score is 0.6 or greater, and No applies otherwise.

Some solved entries appear below for comparison.
[
  {
    "compound": "COC(=O)[C@@H]1CC[C@H](C)[C@@H](c2ccc(C)cc2)N1C(=O)c1ccc(C=NOCC[C@@H]2C=C[C@H](OC(C)=O)[C@@H](COC(C)=O)O2)cc1",
    "classAssignment": "Yes"
  },
  {
    "compound": "CCOC(=O)[C@H](Cc1ccccc1)NC(=O)CCC1CC(OC(=O)NCc2cccc3ccccc23)CC2(CCCC(COC(=O)NCCC(C)C)O2)O1 (some centres undefined)",
    "classAssignment": "No"
  }
]

Exam item: decide whether the reported composite z-score for Cc1cc2c(nc1C)CCCCN2CC(C)ON=C[C@@H](C)[C@H](OCc1ccccc1)C(C)C (some centres undefined) is at least 0.6. No

Determine whether this compound has composite z-score no lower than 0.6: O=C1[C@H]2[C@H]3[C@H](O)[C@H](O)CC(=NOCc4ccccc4)[C@@H]3CC[C@H]2C(=O)N1Cc1ccc2c(c1)OCO2 No

Check if composite z-score >= 0.6 (inclusive). Item: CC(C)(C)N1C(=O)[C@H]2[C@H]3[C@H](O)[C@H](O)CC(=NOCc4ccccc4)[C@H]3CC[C@H]2C1=O No

Does the compound CO[C@H]1COC(=O)[C@@H](Cc2ccccc2)NC(=O)[C@@H](C)COC(=O)CCC[C@@H]1C have recorded composite z-score that is 0.6 or more? No

Exam item: decide whether the reported composite z-score for CC(C)CON=C1[C@H]2CCn3c(=O)n(Cc4cc5c(cc4Cl)OCO5)c(=O)n3[C@H]2[C@H](O)[C@@H]2O[C@H]12 is at least 0.6. No

Determine whether measured composite z-score meets or exceeds 0.6 for CCOC(=O)[C@H](CC(C)C)NC(=O)CCC1CC(OC(=O)NCc2cccc3ccccc23)CC2(CCCC(COC(=O)NCCCN3CCCC3=O)O2)O1 (some centres undefined) Yes

# check: composite z-score of CC(C)CON=C1C[C@@H](O)[C@@H](O)[C@@H]2[C@@H]3C(=O)N(C4CCCCC4)C(=O)[C@@H]3CC[C@H]12 is greater than or equal to 0.6 Yes

Record CCCNC(=O)OC[C@H]1O[C@H](c2ccccc2)C=C[C@@H]1Oc1ccc(OC)cc1 ; criterion: composite z-score no lower than 0.6. Met? No

In plain terms: is recorded composite z-score at least 0.6 for COC(=O)[C@@H]1CC[C@@H](C)[C@H](c2ccc(Br)cc2)N1 ? No

Form field: composite z-score at least 0.6? Entry: CC(C)CON=C1C[C@@H](O)[C@@H](O)[C@@H]2[C@@H]3C(=O)N(C4CCCCC4)C(=O)[C@@H]3CC[C@@H]12 No

// inclusive: composite z-score at least 0.6? input: C=CC[C@@H]1C=C[C@H](ON=C[C@@H](C)[C@H](OCc2ccccc2)C(C)C)[C@@H](CO)O1 No

Threshold query (composite z-score >= 0.6) on Cc1ccc(S(=O)(=O)N[C@H]2COC(=O)CC=C[C@@H](C)COC(=O)CC=C[C@@H]2C)cc1 No

Answer whether composite z-score of COCCNC(=O)OCC1CCCC2(CC(OC(=O)NCc3ccc4c(c3)OCO4)CC(CCC(=O)N[C@@H](C)C(=O)OC)O2)O1 (some centres undefined) is greater than or equal to 0.6. Yes

hey, is composite z-score for this one >= 0.6? COc1cccc([C@H]2Oc3ccc(OC)cc3C(=NO[C@@H]3O[C@H](COC(C)=O)[C@@H](OC(C)=O)[C@H](OC(C)=O)[C@H]3OC(C)=O)[C@@H]2O)c1 Yes

Is it the case that CCOC(=O)[C@H](CC(C)C)NC(=O)CCC1CC(OC(=O)NCc2cccc3ccccc23)CC2(CCCC(COC(=O)NCC3CCCCC3)O2)O1 (some centres undefined) has composite z-score reaching or exceeding 0.6? Yes

Could you verify whether the entry COc1cc(O)c(C(=O)C=Cc2ccc3c(c2)OCO3)c(OC)c1 shows composite z-score of no less than 0.6? No

Given COc1ccc(COC(=O)NN=C2C[C@@H](O)[C@@H](O)[C@@H]3[C@@H]4C(=O)N(c5ccc(F)cc5F)C(=O)[C@@H]4CC[C@H]23)cc1 , state whether its composite z-score is at least 0.6. No

Identify whether the reported composite z-score of the following compound is 0.6 or greater: CCOC(=O)[C@H](Cc1ccccc1)NC(=O)CCC1CC(OC(=O)NCCc2ccc(F)cc2)CC2(CCCC(COC(=O)NCCOC)O2)O1 (some centres undefined) Yes
